Target: Pyridoxal kinase (Homo sapiens, UniProt O00764); further: in the data inactive means no Kd found up to 30 µM
Sequence (O00764 whole entry): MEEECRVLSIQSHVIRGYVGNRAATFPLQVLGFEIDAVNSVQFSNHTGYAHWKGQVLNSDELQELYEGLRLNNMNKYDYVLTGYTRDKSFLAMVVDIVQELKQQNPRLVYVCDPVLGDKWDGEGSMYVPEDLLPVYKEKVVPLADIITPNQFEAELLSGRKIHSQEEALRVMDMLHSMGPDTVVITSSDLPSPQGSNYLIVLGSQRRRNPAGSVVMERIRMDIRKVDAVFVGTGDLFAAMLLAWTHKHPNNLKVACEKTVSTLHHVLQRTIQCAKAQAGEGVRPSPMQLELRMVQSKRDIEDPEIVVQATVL
The source made the active and inactive calls.
Outcomes you can answer with include only these: active, inactive

Take a look at these entries with their results.
[
  {
    "molecule": "CC(=O)c1cnc2ccc(-c3cc(Cl)c(O)c(Cl)c3)nc2c1N[C@H]1CC[C@H](CN(C)C)CC1",
    "system name": "Pyridoxal kinase (Homo sapiens, UniProt O00764)",
    "category": "inactive"
  },
  {
    "molecule": "O=C(Nc1cc(C(F)(F)F)cc(C(F)(F)F)c1)c1cc(Cl)ccc1O [IMD-0354]",
    "system name": "Pyridoxal kinase (Homo sapiens, UniProt O00764)",
    "category": "inactive"
  }
]

What outcome does the record of this test show for FC(F)(F)c1ccc(/C=C/c2nc(COc3ccc(CCCCn4ccnn4)cc3)co2)cc1 [MUBRITINIB] ?
inactive

What outcome does the record of this test show for COc1cc(Nc2ncc3c(n2)-c2ccc(Cl)cc2C(c2c(F)cccc2OC)=NC3)ccc1C(=O)O [ALISERTIB] ?
inactive

What outcome does the record of this test show for Cc1nc2cc(-n3ncc(C(=O)c4cc5ccccc5[nH]4)c3N)ccc2[nH]1 [FGFR INHIBITOR DEBIO 1347] ?
active

What outcome does the record of this test show for CCn1c(C(=O)N(C2CC2)C2CC2)cc2c3c(ncn3C)c(Nc3cc(C)n(C)n3)nc21 [BMS-911543] ?
inactive

What outcome does the record of this test show for C[C@@H](N)c1ccc(C(=O)Nc2ccnc3[nH]ccc23)cc1 [Y-39983] ?
inactive

What outcome does the record of this test show for COc1c(OCCCN2CCOCC2)ccc2c1N=C(NC(=O)c1cnc(N)nc1)N1CCN=C21 [COPANLISIB] ?
inactive

* * *

Consider compounds characterized by their Kd with Phenylalanine--tRNA ligase beta subunit (Homo sapiens).
Sequence (Q9NSD9 whole entry): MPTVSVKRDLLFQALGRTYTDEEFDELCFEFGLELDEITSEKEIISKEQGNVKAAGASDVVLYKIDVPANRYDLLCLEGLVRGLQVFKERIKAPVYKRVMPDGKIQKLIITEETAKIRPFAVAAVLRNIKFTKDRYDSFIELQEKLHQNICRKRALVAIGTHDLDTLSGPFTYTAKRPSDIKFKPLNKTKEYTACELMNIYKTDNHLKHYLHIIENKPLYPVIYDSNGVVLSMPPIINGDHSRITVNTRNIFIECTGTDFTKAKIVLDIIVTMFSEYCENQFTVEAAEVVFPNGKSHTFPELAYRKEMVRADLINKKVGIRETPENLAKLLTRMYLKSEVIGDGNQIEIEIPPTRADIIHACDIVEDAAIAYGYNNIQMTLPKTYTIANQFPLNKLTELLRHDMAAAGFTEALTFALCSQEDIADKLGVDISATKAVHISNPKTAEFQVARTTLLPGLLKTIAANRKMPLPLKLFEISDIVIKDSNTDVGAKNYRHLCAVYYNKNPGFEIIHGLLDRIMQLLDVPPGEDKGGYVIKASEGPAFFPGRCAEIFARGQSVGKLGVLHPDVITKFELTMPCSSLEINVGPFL
The source made the active and inactive calls.

Worked cases, answers included:
[
  {
    "test smiles": "NC1(c2ccc(-c3nc4ccn5c(=O)[nH]nc5c4cc3-c3ccccc3)cc2)CCC1",
    "Kd": "> 30 µM (inactive)"
  },
  {
    "test smiles": "CO[C@H]1C[C@@H]2CC[C@@H](C)[C@@](O)(O2)C(=O)C(=O)N2CCCC[C@H]2C(=O)O[C@H]([C@H](C)C[C@@H]2CC[C@@H](OC(=O)C(C)(CO)CO)[C@H](OC)C2)CC(=O)[C@H](C)/C=C(\\C)[C@@H](O)[C@@H](OC)C(=O)[C@H](C)C[C@H](C)/C=C/C=C/C=C/1C",
    "Kd": "> 30 µM (inactive)"
  },
  {
    "test smiles": "CO[C@H]1C[C@@H]2CC[C@@H](C)[C@@](O)(O2)C(=O)C(=O)N2CCCC[C@H]2C(=O)O[C@H]([C@H](C)C[C@@H]2CC[C@@H](OP(C)(C)=O)[C@H](OC)C2)CC(=O)[C@H](C)/C=C(\\C)[C@@H](O)[C@@H](OC)C(=O)[C@H](C)C[C@H](C)/C=C/C=C/C=C/1C",
    "Kd": "> 30 µM (inactive)"
  },
  {
    "test smiles": "COc1ccc(S(=O)(=O)N(C(C)=O)c2ccccc2/C=C/c2cc[n+]([O-])cc2)cc1",
    "Kd": "> 30 µM (inactive)"
  }
]

Let us examine a further case.
Please give measured Kd of the following entry: CCCCCCCCCCCCCCCCCCOP(=O)([O-])OC1CC[N+](C)(C)CC1
> 30 µM (inactive)

* * *

target: MAP/microtubule affinity-regulating kinase 3 (Homo sapiens, UniProt P27448); further: in the data inactive means no Kd found up to 30 µM
Sequence (P27448 whole entry): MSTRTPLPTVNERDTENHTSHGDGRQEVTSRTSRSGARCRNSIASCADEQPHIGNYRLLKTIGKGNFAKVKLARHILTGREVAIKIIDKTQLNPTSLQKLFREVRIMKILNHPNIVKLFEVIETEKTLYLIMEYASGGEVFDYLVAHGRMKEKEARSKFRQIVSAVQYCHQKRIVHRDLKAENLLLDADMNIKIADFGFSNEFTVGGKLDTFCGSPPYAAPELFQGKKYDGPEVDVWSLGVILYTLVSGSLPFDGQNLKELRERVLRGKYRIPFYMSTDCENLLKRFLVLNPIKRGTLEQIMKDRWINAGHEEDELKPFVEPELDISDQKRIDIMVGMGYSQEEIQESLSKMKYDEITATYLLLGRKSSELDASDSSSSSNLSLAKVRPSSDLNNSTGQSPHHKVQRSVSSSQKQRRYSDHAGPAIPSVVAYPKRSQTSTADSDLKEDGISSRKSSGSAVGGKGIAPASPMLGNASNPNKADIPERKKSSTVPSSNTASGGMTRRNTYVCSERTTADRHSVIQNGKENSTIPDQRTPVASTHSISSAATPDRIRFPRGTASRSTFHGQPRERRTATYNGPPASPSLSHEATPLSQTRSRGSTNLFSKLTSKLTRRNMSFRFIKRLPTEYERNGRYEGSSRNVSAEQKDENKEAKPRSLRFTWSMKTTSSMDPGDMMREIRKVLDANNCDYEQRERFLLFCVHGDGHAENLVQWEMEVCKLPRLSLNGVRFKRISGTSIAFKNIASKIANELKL
Active and inactive are the calls of the source.
Outcomes you can answer with include only these: Y for active, N for inactive

[
  {
    "compound": "O=C(Cc1ccc(-c2ccc(OCCN3CCOCC3)cc2)cn1)NCc1ccccc1",
    "system name": "MAP/microtubule affinity-regulating kinase 3 (Homo sapiens, UniProt P27448)",
    "category": "N"
  },
  {
    "compound": "COc1cc([C@@H]2c3cc4c(cc3[C@H](O)[C@H]3COC(=O)[C@@H]23)OCO4)cc(OC)c1OC",
    "system name": "MAP/microtubule affinity-regulating kinase 3 (Homo sapiens, UniProt P27448)",
    "category": "N"
  },
  {
    "compound": "CO[C@H]1C[C@@H]2CC[C@@H](C)[C@@](O)(O2)C(=O)C(=O)N2CCCC[C@H]2C(=O)O[C@H]([C@H](C)C[C@@H]2CC[C@@H](OC(=O)C(C)(CO)CO)[C@H](OC)C2)CC(=O)[C@H](C)/C=C(\\C)[C@@H](O)[C@@H](OC)C(=O)[C@H](C)C[C@H](C)/C=C/C=C/C=C/1C",
    "system name": "MAP/microtubule affinity-regulating kinase 3 (Homo sapiens, UniProt P27448)",
    "category": "N"
  },
  {
    "compound": "C=CC(=O)Nc1cc2c(Nc3ccc(F)c(Cl)c3)ncnc2cc1C#CC(C)(C)N1CCN(C)CC1 [AV-412 FREE BASE]",
    "system name": "MAP/microtubule affinity-regulating kinase 3 (Homo sapiens, UniProt P27448)",
    "category": "N"
  },
  {
    "compound": "Cn1cc(-c2cnn3c(N)c(Br)c([C@@H]4CCCNC4)nc23)cn1",
    "system name": "MAP/microtubule affinity-regulating kinase 3 (Homo sapiens, UniProt P27448)",
    "category": "Y"
  }
]

Now for another entry.
What outcome does the record of this test show for CCn1c(C(=O)N(C2CC2)C2CC2)cc2c3c(ncn3C)c(Nc3cc(C)n(C)n3)nc21 ?
N

* * *

molecular target: Serine/threonine-protein kinase SIK2 (Homo sapiens); further: in the data inactive means no Kd found up to 30 µM
Sequence (Q9H0K1 whole entry): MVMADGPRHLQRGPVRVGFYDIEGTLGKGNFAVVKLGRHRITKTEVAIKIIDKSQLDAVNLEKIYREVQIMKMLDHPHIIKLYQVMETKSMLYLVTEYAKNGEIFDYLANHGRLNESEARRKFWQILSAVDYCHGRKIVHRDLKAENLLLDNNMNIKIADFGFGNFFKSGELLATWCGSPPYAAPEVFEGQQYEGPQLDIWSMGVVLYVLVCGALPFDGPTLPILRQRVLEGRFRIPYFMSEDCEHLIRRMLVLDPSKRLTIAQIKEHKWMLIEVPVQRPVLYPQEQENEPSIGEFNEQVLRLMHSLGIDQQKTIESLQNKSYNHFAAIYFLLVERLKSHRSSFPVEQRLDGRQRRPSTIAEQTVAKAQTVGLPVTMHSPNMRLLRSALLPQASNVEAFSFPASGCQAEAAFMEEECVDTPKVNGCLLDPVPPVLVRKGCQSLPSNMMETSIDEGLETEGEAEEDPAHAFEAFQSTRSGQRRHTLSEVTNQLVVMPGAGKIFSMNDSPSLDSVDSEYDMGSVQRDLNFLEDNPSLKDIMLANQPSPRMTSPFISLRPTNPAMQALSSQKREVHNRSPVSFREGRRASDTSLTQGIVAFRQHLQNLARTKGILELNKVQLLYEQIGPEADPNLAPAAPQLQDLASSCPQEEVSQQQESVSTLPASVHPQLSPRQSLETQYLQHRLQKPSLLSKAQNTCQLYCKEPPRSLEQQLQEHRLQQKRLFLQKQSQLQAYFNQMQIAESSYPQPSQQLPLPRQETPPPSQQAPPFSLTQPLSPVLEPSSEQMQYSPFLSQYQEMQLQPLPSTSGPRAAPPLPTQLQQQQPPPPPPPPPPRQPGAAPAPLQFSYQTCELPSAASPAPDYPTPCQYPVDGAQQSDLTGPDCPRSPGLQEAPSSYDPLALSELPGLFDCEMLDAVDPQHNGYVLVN
Active and inactive are the calls of the source.
Outcomes you can answer with include only these: 1.0 (active), 0.0 (inactive)

[
  {
    "compound": "C[C@@H](N)c1ccc(C(=O)Nc2ccnc3[nH]ccc23)cc1 [Y-39983]",
    "category": 0.0
  },
  {
    "compound": "COCC(=O)NC/C=C/c1ccc2ncnc(Nc3ccc(Oc4ccc(C)nc4)c(C)c3)c2c1 [CP-724714]",
    "category": 0.0
  },
  {
    "compound": "CCCCCCCCCCCCCCCCCCOP(=O)([O-])OC1CC[N+](C)(C)CC1 [PERIFOSINE]",
    "category": 0.0
  },
  {
    "compound": "CO[C@H]1C[C@@H]2CC[C@@H](C)[C@@](O)(O2)C(=O)C(=O)N2CCCC[C@H]2C(=O)O[C@H]([C@H](C)C[C@@H]2CC[C@@H](O)[C@H](OC)C2)CC(=O)[C@H](C)/C=C(\\C)[C@@H](O)[C@@H](OC)C(=O)[C@H](C)C[C@H](C)/C=C/C=C/C=C/1C [SIROLIMUS]",
    "category": 0.0
  }
]

What outcome does the record of this test show for CNC(=O)c1cccc2cc(Oc3ccnc4cc(OCC5(N)CC5)c(OC)cc34)ccc12 [LUCITANIB] ?
0.0

What outcome does the record of this test show for Cc1nc2cc(-c3nn(C(C)C)c4ncnc(N)c34)ccc2o1 ?
0.0

What outcome does the record of this test show for Cc1nc(Nc2n[nH]c3c2CN(C(=O)N[C@H](CN(C)C)c2ccccc2)C3(C)C)c2sccc2n1 [PF-03758309] ?
1.0

* * *

target: UniProt:P09769
Sequence (P09769 whole entry): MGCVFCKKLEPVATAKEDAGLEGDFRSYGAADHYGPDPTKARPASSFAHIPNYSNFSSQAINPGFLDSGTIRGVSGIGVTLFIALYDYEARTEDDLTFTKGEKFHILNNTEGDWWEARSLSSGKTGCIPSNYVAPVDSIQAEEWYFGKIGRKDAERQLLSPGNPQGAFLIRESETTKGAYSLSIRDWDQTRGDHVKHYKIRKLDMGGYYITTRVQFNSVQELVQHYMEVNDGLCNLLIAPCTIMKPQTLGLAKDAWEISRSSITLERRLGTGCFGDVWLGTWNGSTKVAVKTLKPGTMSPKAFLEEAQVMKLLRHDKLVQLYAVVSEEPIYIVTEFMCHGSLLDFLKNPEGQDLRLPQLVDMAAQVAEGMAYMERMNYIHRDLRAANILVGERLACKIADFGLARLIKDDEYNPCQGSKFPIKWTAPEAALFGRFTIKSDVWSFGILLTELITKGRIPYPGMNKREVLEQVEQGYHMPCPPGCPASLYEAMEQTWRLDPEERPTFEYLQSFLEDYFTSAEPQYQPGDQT
The source made the active and inactive calls.
Outcomes you can answer with include only these: active, inactive

Take a look at these entries with their results.
[
  {
    "compound": "CC(C)(C)c1nc(-c2cccc(NS(=O)(=O)c3c(F)cccc3F)c2F)c(-c2ccnc(N)n2)s1 [DABRAFENIB]",
    "category": "active"
  },
  {
    "compound": "NC(=O)c1c(OCc2c(F)cc(Br)cc2F)nsc1NC(=O)NCCCCN1CCCC1 [OSI-632]",
    "category": "inactive"
  },
  {
    "compound": "Cn1cc(-c2cnn3c(N)c(Br)c([C@@H]4CCCNC4)nc23)cn1 [SCH-900776]",
    "category": "inactive"
  },
  {
    "compound": "C#Cc1cccc(Nc2ncnc3cc(OC)c(OCCCCCCC(=O)NO)cc23)c1 [CUDC-101]",
    "category": "inactive"
  }
]

What outcome does the record of this test show for O=C(Cc1ccc(-c2ccc(OCCN3CCOCC3)cc2)cn1)NCc1ccccc1 [TIRBANIBULIN] ?
inactive

What outcome does the record of this test show for CO[C@H]1C[C@@H]2CC[C@@H](C)[C@@](O)(O2)C(=O)C(=O)N2CCCC[C@H]2C(=O)O[C@H]([C@H](C)C[C@@H]2CC[C@@H](O)[C@H](OC)C2)CC(=O)[C@H](C)/C=C(\C)[C@@H](O)[C@@H](OC)C(=O)[C@H](C)C[C@H](C)/C=C/C=C/C=C/1C [SIROLIMUS] ?
inactive

What outcome does the record of this test show for Cn1cnc2c(F)c(Nc3ccc(Br)cc3F)c(C(=O)NOCCO)cc21 [BINIMETINIB] ?
inactive
